The values you see were collected from PubChem BioAssay.

tested on: Human papillomavirus type 1a protein E7 (residues 44-93); experiment: HPV1a E7 fragment binders on microarrays, primary screen, biochemical, small-molecule microarray, residues 44-93, 635 nm fluorescence (AID 1108); conditions: small-molecule microarray binding, fluorescence 635 nm; higher = more signal;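 note: E7 fragment applied at 1 µg/mL in TBST for 1 h at 4 C; score combines spot fluorescence with its signal to noise ratio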
Label -1 if composite z-score falls below 0.8; label 1 in every other case.

Worked set:
1. CC(c1ccccc1)C(O)C1C=CC2C(=O)N(c3ccccc3)C(=O)C2N1Nc1ccc(C#N)cc1 (stereo unspecified); 1
2. CCOC(=O)C1=CC[C@@H](c2ccccc2Cl)N(S(=O)(=O)c2ccc(C)cc2)[C@H]1c1cccc(OC)c1; -1
3. COc1ccc(C#Cc2ccc3c(c2)[C@]2(C(=O)N3)[C@H](c3ccc(OCCO)cc3)N3[C@H](c4ccccc4)[C@H](c4ccccc4)OC(=O)[C@H]3[C@@H]2C(=O)O)cc1; 1
4. CC(C)[C@@H](C(=O)O)n1cc(-c2ccccc2)nn1; 1
5. COc1ccc(NC(=O)O[C@H]2[C@H](OC(=O)Nc3ccc4c(c3)OCO4)[C@H](OC(=O)Nc3ccc4c(c3)OCO4)[C@@H](OC)O[C@@H]2CO)cc1; 1
6. O=C1N(CCS(=O)(=O)c2ccccc2)c2ccccc2[C@@H]2OC(c3ccc(OCCCO)cc3)=N[C@]12CCS(=O)(=O)c1ccccc1; 1

Textbook exercise: given the entry COc1ccc([Si](C)(C)[C@@H]2[C@@H](CCO)O[C@]3(C(=O)N(Cc4ccccc4)c4ccc(N5C(=O)c6ccccc6Oc6ccccc65)cc43)[C@H]2C)cc1 , state whether its composite z-score is greater than or equal to 0.8.
-1

Textbook exercise: given the entry COC(=O)[C@@]1(Cc2ccc(F)cc2)[C@H]2c3cc(C(=O)N4CCCC4)n(CCO)c3C[C@H]2CN1C(=O)c1ccccc1 , state whether its composite z-score is greater than or equal to 0.8.
-1

Textbook exercise: given the entry CC(C)C[C@@H]1NC(=O)[C@@H]2C[C@H](C(=O)NCCCC[N+](C)(C)C)[C@H](c3ccc(O)cc3)N2C1=O , state whether its composite z-score is greater than or equal to 0.8.
-1

Textbook exercise: given the entry CCCCCCCCCCC(O)C1C=CC2C(=O)N(C)C(=O)C2N1N1CCCCC1 (stereo unspecified) , state whether its composite z-score is greater than or equal to 0.8.
-1

Textbook exercise: given the entry C#CCN=C(N)N , state whether its composite z-score is greater than or equal to 0.8.
-1

Textbook exercise: given the entry O=C1O[C@H](c2ccccc2)[C@H](c2ccccc2)N2[C@H]1[C@@H](C(=O)N1CCN(c3ncccn3)CC1)[C@]1(C(=O)Nc3ccccc31)[C@H]2c1ccc(O)cc1 , state whether its composite z-score is greater than or equal to 0.8.
1

Textbook exercise: given the entry COCCOC(=O)N1C(=O)[C@@]2(c3cc(C#CCCO)ccc31)[C@H](C(=O)N1CCc3cc(OC)c(OC)cc3C1)[C@H]1C(=O)O[C@H](c3ccccc3)[C@H](c3ccccc3)N1[C@@H]2c1ccccc1OCCO , state whether its composite z-score is greater than or equal to 0.8.
1

Textbook exercise: given the entry O=C1O[C@@H](c2ccccc2)[C@@H](c2ccccc2)N2[C@@H](c3ccc(OCCO)cc3)[C@]3(C(=O)Nc4ccc(C#CCCO)cc43)[C@@H](C(=O)Nc3nc4ccccc4s3)[C@H]12 , state whether its composite z-score is greater than or equal to 0.8.
1

###

Readings of z-score for the listed molecules
experiment: MM1S cell viability effects, profiling panel, calcein-AM fluorescence, 48 h, basal (AID 1165); conditions: higher = more signal;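 note: viability of MM1S multiple myeloma cells under basal unstimulated conditions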
Field format: numeric only.

Measured z-score, CC(C)c1ccc(NN2C(C(O)C(C)C)C=CC3C(=O)N(c4ccccc4)C(=O)C32)cc1 (stereo not given) : -0.871

Measured z-score, COC(=O)[C@@]1(Cc2ccc(F)cc2)[C@H]2c3cc(C(=O)N4CCCC4)n(CCO)c3C[C@H]2CN1C(=O)c1ccccc1 : 0.309

Measured z-score, O=C1c2ccccc2[C@](Cc2ccccc2I)(C(=O)O)[C@H](c2ccc(CO)cc2)N1Cc1ccccc1 : 0.295

Measured z-score, CCN(CC)c1ccc(N2CC=CC34O[C@@H]5C=CCOC(=O)[C@@H]5[C@H]3C(=O)N(CCCO)[C@@H]4C2=O)cc1 (stereo not given in full) : 1.8

Measured z-score, CC[C@H](C)C(=O)O[C@H]1CC[C@]2(C)C3=C(CCC2C1(C)C)[C@]1(C)CC[C@H]([C@H](C)CCCC(C)C)[C@@]1(C)CC3 (stereo not given in full) : 0.223

###

system: XIP peptide (Xip251-270); assay: small-molecule binders of XIP peptide, primary screen, biochemical, small-molecule microarray, fluorescence 635/667 nm, 0.5 µg/mL protein (AID 1183); conditions: small-molecule microarray binding, fluorescence 635 nm; higher = more signal
Readings of composite z-score for the listed compounds
Field format: numeric only.

1. CCOC(=O)C1=C(C(=O)OCC)N(S(=O)(=O)CC[Si](C)(C)C)[C@H](c2ccccc2)CC1; 0.201

Item: C=CCOC(=O)[C@H]1[C@@H]2C(=O)O[C@@H](c3ccccc3)[C@@H](c3ccccc3)N2[C@@H](c2ccc(OCCOC(=O)[C@@H]3C[C@@H]4C(=O)N[C@@H](Cc5ccccc5)C(=O)N4[C@@H]3c3ccc(O)cc3)cc2)[C@]12C(=O)Nc1ccccc12 | System: XIP peptide (Xip251-270) | composite z-score: 0.743

Item: O=C1O[C@H](c2ccccc2)[C@H](c2ccccc2)N2[C@H]1[C@@H](C(=O)N1CCN(c3ncccn3)CC1)[C@]1(C(=O)Nc3ccccc31)[C@H]2c1ccc(O)cc1 | System: XIP peptide (Xip251-270) | composite z-score: 0.458

Item: C=CCC(OC(C)=O)[C@@H]1[C@@H](N(Cc2cc3ccccc3o2)C(=O)c2cccc3ccccc23)c2cc(OCCCO)ccc2N1C(=O)c1ccc2ccccc2c1 (stereo not given in full) | System: XIP peptide (Xip251-270) | composite z-score: -0.611

Item: COCCOC(=O)N1C(=O)[C@@]2(c3cc(C#CCNC(N)=O)ccc31)[C@H](C(=O)NC[C@H](O)c1ccccc1)[C@H]1C(=O)O[C@H](c3ccccc3)[C@H](c3ccccc3)N1[C@@H]2c1ccc(OCCO)cc1 | System: XIP peptide (Xip251-270) | composite z-score: 0.785

Item: COC(=O)[C@@]1(Cc2ccc(F)cc2)[C@H]2c3cc(C(=O)N(C)C)n(CCN4CCOCC4)c3C[C@H]2CN1C(=O)c1ccccc1 | System: XIP peptide (Xip251-270) | composite z-score: 0.811

###

target: Pro-neuregulin-1, membrane-bound isoform (Homo sapiens) (UniProt Q02297); assay: NRG1 binders on small-molecule microarrays, primary screen, psychiatric disease protein project, biochemical, small-molecule microarray, fluorescence 635/667 (AID 1075); conditions: NRG1 binding, 635 nm fluorescence, higher = more signal;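 note: score combines 667 nm spot fluorescence with signal to noise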
Sequence (Q02297 whole entry, looked up, canonical isoform): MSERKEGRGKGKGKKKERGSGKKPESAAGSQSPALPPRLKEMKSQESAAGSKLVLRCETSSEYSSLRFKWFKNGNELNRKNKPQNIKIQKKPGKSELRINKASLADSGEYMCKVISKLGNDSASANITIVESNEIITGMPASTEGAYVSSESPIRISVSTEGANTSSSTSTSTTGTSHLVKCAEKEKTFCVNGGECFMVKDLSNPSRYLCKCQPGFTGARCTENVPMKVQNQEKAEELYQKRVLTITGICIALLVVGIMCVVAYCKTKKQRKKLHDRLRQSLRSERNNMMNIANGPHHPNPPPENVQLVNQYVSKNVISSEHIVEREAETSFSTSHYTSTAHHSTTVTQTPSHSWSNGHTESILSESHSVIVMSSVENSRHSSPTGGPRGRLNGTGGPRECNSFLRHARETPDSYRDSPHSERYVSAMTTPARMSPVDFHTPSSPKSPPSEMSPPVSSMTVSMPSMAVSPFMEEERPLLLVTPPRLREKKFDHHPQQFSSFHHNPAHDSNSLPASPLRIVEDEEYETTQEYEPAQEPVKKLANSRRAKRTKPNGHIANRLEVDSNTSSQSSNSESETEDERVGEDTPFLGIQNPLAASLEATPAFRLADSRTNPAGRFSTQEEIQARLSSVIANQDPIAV
Label NO if composite z-score falls below 0.05; label YES in every other case.

Worked set:
1) O=C1OCCC=C[C@H]2OC34C=CCN(c5ccc(Cl)cc5)C(=O)[C@H]3N(CCO)C(=O)[C@@H]4C12 (stereo not given in full); NO
2) C=C(CCCC)C(=O)CC[C@H](OC(C)=O)c1ccccc1OCCO; YES
3) CC(C)[C@@H](C(=O)O)n1cc(-c2ccccc2)nn1; YES
4) C=CCN1C(=O)[C@]2(O[C@H](CCO)[C@@H]([Si](C)(C)c3ccc(OC)cc3)[C@@H]2C)c2ccccc21; YES
5) COc1ccc(CC[C@H](O)c2cccc(OCC(=O)OC(C)(C)C)c2)cc1; YES

Textbook exercise: given the entry CN(C)CCCC[C@@H]1NC(=O)[C@H]2C[C@@H](C(=O)NCc3ccc(F)cc3)[C@@H](c3ccc(O)cc3)N2C1=O , state whether its composite z-score is greater than or equal to 0.05.
YES

Textbook exercise: given the entry CCCCC(=C=CC[C@@H](O)c1cccc(OCCO)c1)CCO , state whether its composite z-score is greater than or equal to 0.05.
NO

Textbook exercise: given the entry CC(=O)c1ccc(C(O)C2C=CC3C(=O)NC(=O)C3N2Nc2ccc(Cl)cc2Cl)cc1 (stereo not given) , state whether its composite z-score is greater than or equal to 0.05.
YES

Textbook exercise: given the entry CCCCC(=C=CC[C@@H](O)c1ccc(OCCO)cc1)C[C@@H](O)c1ccccn1 , state whether its composite z-score is greater than or equal to 0.05.
YES

Textbook exercise: given the entry Cc1ccc(F)cc1S(=O)(=O)N[C@@H]1CCN(Cc2ccc3c(c2)OCO3)C1 , state whether its composite z-score is greater than or equal to 0.05.
NO

###

experiment: HepG2 cell viability effects, profiling panel, calcein-AM fluorescence, 48 h, basal (AID 1164); conditions: higher = more signal
Label rule not met if z-score falls below -0.4; label rule met in every other case.

Worked set:
1. COC(=O)[C@@]1(Cc2ccccc2)[C@H]2c3cc(C(=O)N4CCCC4)n(Cc4ccc(C(F)(F)F)nc4)c3C[C@H]2CN1C(=O)c1ccccc1; rule not met
2. COC(=O)[C@@]1(Cc2ccc(F)cc2)[C@H]2c3cc(C(=O)N(C)C)n(CCO)c3C[C@H]2CN1C(=O)c1ccccc1; rule met
3. CC(C)C[C@@H]1NC(=O)[C@@]23C(=O)N[C@@H](Cc4ccccc4)C2[C@H](C)[C@@]2(C)O[C@H]2C3/C=C/C/C=C\CNC(=O)[C@@H](CC(C)C)NC1=O (some centres undefined); rule met
4. CCOC(=O)C[C@H]1[C@H](OC(=O)c2ccc(-c3ccccc3)cc2)[C@@H](NC(=O)CC(C)C)c2cc(OCCCO)ccc2N1C(=O)Cc1ccc(OC)cc1; rule met

Textbook exercise: given the entry CC(C)CNC(=O)[C@@H]1c2ccccc2C(=O)N(Cc2ccccc2)[C@H]1c1ccc(CO)cc1 , state whether its z-score is greater than or equal to -0.4.
rule met

Textbook exercise: given the entry COc1ccc(C(O)C2C=CC3C(=O)N(C)C(=O)C3N2Nc2ccc([N+](=O)[O-])cc2[N+](=O)[O-])cc1OCc1ccccc1 (centres undefined) , state whether its z-score is greater than or equal to -0.4.
rule met

Textbook exercise: given the entry COc1ccc([Si](C)(C)[C@H]2[C@H](CCO)O[C@@]3(C(=O)N(Cc4ccc(N5CCOC5=O)cc4)c4ccccc43)[C@@H]2C)cc1 , state whether its z-score is greater than or equal to -0.4.
rule not met

Textbook exercise: given the entry CCCCCCCCCCC(O)C1C=CC2C(=O)N(C)C(=O)C2N1N1CCCCC1 (centres undefined) , state whether its z-score is greater than or equal to -0.4.
rule not met

Textbook exercise: given the entry CN1C(=O)C2C=CC(C(O)c3ccc(-c4ccccc4)s3)N(Nc3ccccc3)C2C1=O (centres undefined) , state whether its z-score is greater than or equal to -0.4.
rule not met

Textbook exercise: given the entry COC(=O)[C@@]1(Cc2ccccc2CN=[N+]=[N-])COC(c2ccc(OCCCO)cc2)=N1 , state whether its z-score is greater than or equal to -0.4.
rule not met

Textbook exercise: given the entry CCN(CC)c1ccc(N2CC=CC34O[C@@H]5C=CCOC(=O)[C@@H]5[C@H]3C(=O)N(CCCO)[C@@H]4C2=O)cc1 (some centres undefined) , state whether its z-score is greater than or equal to -0.4.
rule met

Textbook exercise: given the entry C=CCNC(=O)[C@@H]1[C@H]2C(=O)O[C@H](c3ccccc3)[C@H](c3ccccc3)N2[C@H](c2ccccc2OCCO)[C@@]12C(=O)N(C(=O)OCCOC)c1ccc(C#CCCO)cc12 , state whether its z-score is greater than or equal to -0.4.
rule met

Textbook exercise: given the entry C=CCC(OC(C)=O)[C@@H]1[C@@H](N(Cc2ccc(-c3ccccc3)cc2)C(=O)c2ccc(C)cc2)c2cc(OCCCO)ccc2N1C(=O)c1ccc2ccccc2c1 (some centres undefined) , state whether its z-score is greater than or equal to -0.4.
rule met

Textbook exercise: given the entry COC(=O)[C@@]1(Cc2ccc(F)cc2)[C@H]2c3cc(C(=O)N(C)C)n(CCN4CCOCC4)c3C[C@H]2CN1C(=O)c1ccccc1 , state whether its z-score is greater than or equal to -0.4.
rule not met

Textbook exercise: given the entry CCOC(=O)C[C@H]1[C@H](OC(=O)c2ccc(C(=O)c3ccccc3)cc2)[C@@H](NC(=O)c2ccc3ccccc3c2)c2cc(OCCCO)ccc2N1C(=O)c1ccc2ccccc2n1 , state whether its z-score is greater than or equal to -0.4.
rule met

Textbook exercise: given the entry COC(=O)[C@@]1(CCS(=O)(=O)c2ccccc2)N=C(c2ccc(OCCCO)cc2)O[C@H]1c1ccccc1N=[N+]=[N-] , state whether its z-score is greater than or equal to -0.4.
rule not met

Textbook exercise: given the entry C=C(C(=O)CC[C@@H](OC(C)=O)c1cccc(OCCO)c1)C(C)C , state whether its z-score is greater than or equal to -0.4.
rule met

Textbook exercise: given the entry COCCOC(=O)N1C(=O)[C@@]2(c3cc(C#CC4=CCCCC4)ccc31)[C@H](C(=O)N1CCN(c3ncccn3)CC1)[C@H]1C(=O)O[C@H](c3ccccc3)[C@H](c3ccccc3)N1[C@@H]2c1ccccc1OCCO , state whether its z-score is greater than or equal to -0.4.
rule not met

Textbook exercise: given the entry C=CC[C@@]12N=C(c3ccc(OCCCO)cc3)O[C@@H]1c1ccccc1N(Cc1ccccc1)C2=O , state whether its z-score is greater than or equal to -0.4.
rule not met
